B1: library; numbered along this chain (parent)
chain: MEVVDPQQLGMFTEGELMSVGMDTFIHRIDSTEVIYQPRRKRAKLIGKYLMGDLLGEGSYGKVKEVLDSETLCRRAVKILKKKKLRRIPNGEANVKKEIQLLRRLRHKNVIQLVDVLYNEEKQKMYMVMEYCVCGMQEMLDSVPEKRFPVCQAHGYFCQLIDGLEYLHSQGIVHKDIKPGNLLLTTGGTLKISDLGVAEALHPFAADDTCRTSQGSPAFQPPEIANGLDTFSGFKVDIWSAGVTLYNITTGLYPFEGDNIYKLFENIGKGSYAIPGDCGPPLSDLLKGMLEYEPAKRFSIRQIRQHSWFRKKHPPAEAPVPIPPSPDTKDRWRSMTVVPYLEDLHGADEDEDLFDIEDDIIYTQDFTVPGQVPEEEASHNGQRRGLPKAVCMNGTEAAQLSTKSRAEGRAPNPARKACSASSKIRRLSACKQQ

Variants of: B1
protocol summary: STK11 functional score (HeLa growth suppression), rescaled enrichment; synonymous median = 1, nonsense median = 0 (normalised score)
condition details: with HeLa; variant type: missense

var: S307V
STK11 functional score: 1.34

var: R39V
STK11 functional score: 1.22

var: G56C
STK11 functional score: 0.475

var: W308L
STK11 functional score: -0.172

var: K269F
STK11 functional score: 0.789

var: G242S
STK11 functional score: 0.0147

var: D162V
STK11 functional score: 1.17

var: E223H
STK11 functional score: 1.18

var: V338S
STK11 functional score: 1.59

var: P326Y
STK11 functional score: 0.263

var: K191R
STK11 functional score: 1.42
